Collected kon values appear next to each entry.
SYSTEM TESTED: T1, C-reactive protein (human (produced in the Human Secretome …, UniProt P02741 19-224))
T1 construct: also called CRP; bCRP
T1 sequence (looked up): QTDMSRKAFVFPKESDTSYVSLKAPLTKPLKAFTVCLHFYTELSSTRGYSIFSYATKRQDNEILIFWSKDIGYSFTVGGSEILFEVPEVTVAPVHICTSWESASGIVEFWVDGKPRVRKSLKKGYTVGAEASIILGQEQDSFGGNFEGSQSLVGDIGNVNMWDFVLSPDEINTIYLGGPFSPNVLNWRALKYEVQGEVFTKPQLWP
PROTOCOL NOTES: SPR Biacore T200, target on CM5 chip, ADAPT injected, 1:1 fit
Report only the number, with the unit M⁻¹ s⁻¹ understood.

Examples with answers:
INSERT INTO assay_data (binder, measurement_type, measured_result) VALUES
  ('LSKAKAQAWHELYYYGVSDFYLSLIDKAKTVEGVEALKLHILAALP (designed binder) [ADAPT variant CRP_23]', 'kon', 890),
  ('LHYAKIMAFHELWQYGVSDFYLQLIDKAKTVEGVEALKLHILAALP (designed binder) [ADAPT variant CRP_48]', 'kon', 19000);

Req: Record request: kon value, item LRVAKSMAWHELWSYGVSDFYLRLIDKAKTVEGVEALKLHILAALP (designed binder) [ADAPT variant CRP_09]
Resp: 1200

Req: Query LKVAKIIAFHELWEYGVSDFYLSLIDKAKTVEGVEALKLHILAALP (designed binder) [ADAPT variant CRP_38] next
Resp: 33000
